Target: F508delCFTR (Homo sapiens, UniProt P13569, DEL508-508)
Construct: expressed in transfected cells; host or cells: CFBE41o- human lung-derived epithelial cells (CFBE4lo-F508delCFTR-HRP), doxycycline-inducible
Sequence (P13569 with tags, fused parts or gaps DEL508-508): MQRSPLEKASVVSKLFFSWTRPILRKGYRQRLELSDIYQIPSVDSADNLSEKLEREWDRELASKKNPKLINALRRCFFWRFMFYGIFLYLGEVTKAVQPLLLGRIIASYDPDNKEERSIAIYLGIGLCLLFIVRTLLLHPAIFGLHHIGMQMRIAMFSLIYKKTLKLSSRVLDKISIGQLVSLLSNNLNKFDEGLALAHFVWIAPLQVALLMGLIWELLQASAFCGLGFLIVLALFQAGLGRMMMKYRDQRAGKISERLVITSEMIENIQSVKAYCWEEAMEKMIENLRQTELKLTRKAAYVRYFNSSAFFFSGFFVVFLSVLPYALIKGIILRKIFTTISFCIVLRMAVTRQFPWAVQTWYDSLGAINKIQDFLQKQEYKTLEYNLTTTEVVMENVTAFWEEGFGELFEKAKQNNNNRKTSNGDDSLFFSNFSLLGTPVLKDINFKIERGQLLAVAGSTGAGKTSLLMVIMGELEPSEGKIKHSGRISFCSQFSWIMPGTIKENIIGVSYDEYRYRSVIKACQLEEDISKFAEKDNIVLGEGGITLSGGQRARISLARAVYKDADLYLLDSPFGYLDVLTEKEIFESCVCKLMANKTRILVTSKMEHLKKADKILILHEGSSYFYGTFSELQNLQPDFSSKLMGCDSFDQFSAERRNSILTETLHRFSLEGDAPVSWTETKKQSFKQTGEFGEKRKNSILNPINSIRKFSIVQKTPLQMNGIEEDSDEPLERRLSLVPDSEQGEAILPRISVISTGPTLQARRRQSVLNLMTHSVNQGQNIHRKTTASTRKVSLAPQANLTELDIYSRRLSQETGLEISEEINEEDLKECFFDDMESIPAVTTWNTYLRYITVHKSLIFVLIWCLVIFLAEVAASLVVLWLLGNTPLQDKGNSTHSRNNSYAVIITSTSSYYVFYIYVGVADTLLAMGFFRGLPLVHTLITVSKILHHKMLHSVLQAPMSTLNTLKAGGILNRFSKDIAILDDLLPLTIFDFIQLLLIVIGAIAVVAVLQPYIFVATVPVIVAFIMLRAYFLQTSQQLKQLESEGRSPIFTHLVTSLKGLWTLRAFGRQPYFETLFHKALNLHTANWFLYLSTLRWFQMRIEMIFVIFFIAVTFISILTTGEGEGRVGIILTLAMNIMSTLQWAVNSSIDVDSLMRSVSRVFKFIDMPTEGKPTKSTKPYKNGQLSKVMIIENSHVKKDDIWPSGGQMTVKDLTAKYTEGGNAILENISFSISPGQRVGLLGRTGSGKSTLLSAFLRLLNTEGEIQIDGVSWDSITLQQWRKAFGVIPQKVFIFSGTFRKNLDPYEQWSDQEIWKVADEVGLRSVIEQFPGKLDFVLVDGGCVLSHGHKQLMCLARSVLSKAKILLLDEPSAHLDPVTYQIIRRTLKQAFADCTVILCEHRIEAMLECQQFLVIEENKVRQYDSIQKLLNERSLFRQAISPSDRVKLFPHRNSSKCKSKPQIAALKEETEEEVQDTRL
Test: Cell Surface Expression-Horse Radish Peroxidase (CSE-HRP) Assay;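 on Maximum % activity (with co-corrector): co-corrector and positive control are both the same reference corrector at 2 µM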
Assay type: cell-based
Conditions: with co-corrector (2 μM); maximum at any tested concentration, normalized to on-plate positive control
Quantity measured: Maximum % activity (with co-corrector)

| Compound | Maximum % activity (with co-corrector) |
| --- | --- |
| COc1ncc(C(F)(F)F)cc1CN[C@H]1[C@H](C(C)(C)C)[C@@H](C(=O)O)N(C(=O)[C@H]2CCCCO2)[C@H]1c1ccccc1C(C)C [Example 85] | +++ (≥350) |
| COc1cc(C(F)(F)F)ccc1CN[C@@H]1[C@@H](C(C)(C)C)[C@H](C(=O)O)N(C(=O)C2C3COCC32)[C@@H]1c1ccccc1N(C)C (mixture of isomers) [Example I-24] | +++ (≥350) |
| COc1ncc(C2CCC2)cc1CN[C@H]1[C@H](C(C)(C)C)[C@@H](C(=O)O)N(C(=O)OC(C)C)[C@H]1c1ccccc1C(C)C [Example 68] | +++ (≥350) |
| COc1ncc(C(F)(F)F)cc1CN[C@H]1[C@H](C23CC(C2)C3)[C@@H](C(=O)O)N(C(=O)C2CCCCC2)[C@H]1c1ccccc1 [Example 57] | +++ (≥350) |
| COc1ccc(Cl)cc1CN[C@H]1[C@H](C(C)(C)C)[C@@H](C(=O)O)N(C(=O)C2CCCCC2)[C@H]1c1ncccc1OC (racemic) [Example I-40] | + (<150) |
| COc1ccc(C23CC(C2)C3)cc1CN[C@H]1[C@H](C(C)(C)C)[C@@H](C(=O)O)N(C(=O)OC(C)C)[C@H]1c1ccccc1C(C)C [III-220] | +++ (≥350) |
| COc1ccc(C(C)(C)C)cc1CN[C@H]1[C@H](C(C)(C)C)[C@@H](C(=O)O)N(C(=O)C2CCCCO2)[C@H]1c1ccccc1C(C)C (relative stereo) [Example 62] | +++ (≥350) |
| COc1ncc(C(F)(F)F)cc1CN[C@H]1[C@H](C(C)(C)C)[C@@H](C(=O)O)N(C(=O)C2CCCC(F)(F)C2)[C@H]1c1ccccc1 (stereo partly shown) [Example I-183] | +++ (≥350) |

Give Maximum % activity (with co-corrector) for the following compound: CC(C)(C)[C@@H]1[C@@H](NCc2cc(F)ccc2S(C)(=O)=O)[C@@H](c2ccccc2)N(C(=O)C2CCCCC2)[C@H]1C(=O)O (racemic) [III-108]
+ (<150)

Give Maximum % activity (with co-corrector) for the following compound: CC(C)(C)[C@H]1[C@H](Nc2cc(C(F)(F)F)cc(C3CCC3)n2)[C@H](c2ccccc2)N(C(=O)C2CCCCC2)[C@@H]1C(=O)O [Example I-67]
+++ (≥350)

---

// values below are reported EC50
Biological target: F508delCFTR (Homo sapiens, UniProt P13569, DEL508-508)
Construct: expressed in transfected cells; host or cells: CFBE41o- human lung-derived epithelial cells (CFBE4lo-F508delCFTR-HRP), doxycycline-inducible
Assay: Cell Surface Expression-Horse Radish Peroxidase (CSE-HRP) Assay
Format: cell-based
Details: with co-corrector (2 μM of 3-[(2R,4R)-4-({[1-(2,2-difluoro-1,3-benzodioxol-5-yl)cyclopropyl]carbonyl}amino)-7-methoxy-3,4-dihydro-2H-chromen-2-yl]benzoic acid); read-out: EC50 (with co-corrector)

| Molecule | EC50 |
| --- | --- |
| COc1ccc(C(C)(C)C)cc1CN[C@H]1[C@H](C(C)(C)C)[C@@H](C(=O)O)N(C(=O)C2CCCCO2)[C@H]1c1ccccc1C(C)C (relative stereo) [Example 62] | < 1 µM |
| COc1ccc(-c2ccccc2)cc1CN[C@H]1[C@H](C(C)(C)C)[C@@H](C(=O)O)N(C(=O)[C@@H]2CCCCO2)[C@H]1c1cccnc1N(C)C [II-450] | < 1 µM |
| COc1ccc(C(C)(C)C)cc1CN[C@H]1[C@H](C(C)(C)C)[C@@H](C(=O)O)N(C(=O)c2cn(C)c3ccccc23)[C@H]1c1ccccc1 [III-177] | 1 to 10 µM |

Fetch value of EC50 on F508delCFTR (Homo sapiens, UniProt P13569, DEL508-508) for COc1ccc(C(C)(C)C)cc1CN[C@H]1[C@H](C(C)(C)C)[C@@H](C(=O)O)N(C(=O)OC2COC2)[C@H]1c1ccccc1 [Example I-244] .
1 to 10 µM

Fetch value of EC50 on F508delCFTR (Homo sapiens, UniProt P13569, DEL508-508) for COc1cc(C(F)(F)F)ccc1CN[C@H]1[C@H](C(C)(C)C)[C@@H](C(=O)O)N(C(=O)[C@@H]2CCCO2)[C@H]1c1cccnc1C1CC1 [II-587] .
1 to 10 µM

Fetch value of EC50 on F508delCFTR (Homo sapiens, UniProt P13569, DEL508-508) for COc1cc2c(cc1CN[C@H]1[C@H](C(C)(C)C)[C@@H](C(=O)O)N(C(=O)C3CCCCC3)[C@H]1c1ccccc1)CCC2 [Example I-49] .
< 1 µM
